- system-under-test: BRG-1 (Homo sapiens, UniProt P51532)
- Construct: made in house; host or cells: High Five insect cells
- Sequence (P51532 whole entry): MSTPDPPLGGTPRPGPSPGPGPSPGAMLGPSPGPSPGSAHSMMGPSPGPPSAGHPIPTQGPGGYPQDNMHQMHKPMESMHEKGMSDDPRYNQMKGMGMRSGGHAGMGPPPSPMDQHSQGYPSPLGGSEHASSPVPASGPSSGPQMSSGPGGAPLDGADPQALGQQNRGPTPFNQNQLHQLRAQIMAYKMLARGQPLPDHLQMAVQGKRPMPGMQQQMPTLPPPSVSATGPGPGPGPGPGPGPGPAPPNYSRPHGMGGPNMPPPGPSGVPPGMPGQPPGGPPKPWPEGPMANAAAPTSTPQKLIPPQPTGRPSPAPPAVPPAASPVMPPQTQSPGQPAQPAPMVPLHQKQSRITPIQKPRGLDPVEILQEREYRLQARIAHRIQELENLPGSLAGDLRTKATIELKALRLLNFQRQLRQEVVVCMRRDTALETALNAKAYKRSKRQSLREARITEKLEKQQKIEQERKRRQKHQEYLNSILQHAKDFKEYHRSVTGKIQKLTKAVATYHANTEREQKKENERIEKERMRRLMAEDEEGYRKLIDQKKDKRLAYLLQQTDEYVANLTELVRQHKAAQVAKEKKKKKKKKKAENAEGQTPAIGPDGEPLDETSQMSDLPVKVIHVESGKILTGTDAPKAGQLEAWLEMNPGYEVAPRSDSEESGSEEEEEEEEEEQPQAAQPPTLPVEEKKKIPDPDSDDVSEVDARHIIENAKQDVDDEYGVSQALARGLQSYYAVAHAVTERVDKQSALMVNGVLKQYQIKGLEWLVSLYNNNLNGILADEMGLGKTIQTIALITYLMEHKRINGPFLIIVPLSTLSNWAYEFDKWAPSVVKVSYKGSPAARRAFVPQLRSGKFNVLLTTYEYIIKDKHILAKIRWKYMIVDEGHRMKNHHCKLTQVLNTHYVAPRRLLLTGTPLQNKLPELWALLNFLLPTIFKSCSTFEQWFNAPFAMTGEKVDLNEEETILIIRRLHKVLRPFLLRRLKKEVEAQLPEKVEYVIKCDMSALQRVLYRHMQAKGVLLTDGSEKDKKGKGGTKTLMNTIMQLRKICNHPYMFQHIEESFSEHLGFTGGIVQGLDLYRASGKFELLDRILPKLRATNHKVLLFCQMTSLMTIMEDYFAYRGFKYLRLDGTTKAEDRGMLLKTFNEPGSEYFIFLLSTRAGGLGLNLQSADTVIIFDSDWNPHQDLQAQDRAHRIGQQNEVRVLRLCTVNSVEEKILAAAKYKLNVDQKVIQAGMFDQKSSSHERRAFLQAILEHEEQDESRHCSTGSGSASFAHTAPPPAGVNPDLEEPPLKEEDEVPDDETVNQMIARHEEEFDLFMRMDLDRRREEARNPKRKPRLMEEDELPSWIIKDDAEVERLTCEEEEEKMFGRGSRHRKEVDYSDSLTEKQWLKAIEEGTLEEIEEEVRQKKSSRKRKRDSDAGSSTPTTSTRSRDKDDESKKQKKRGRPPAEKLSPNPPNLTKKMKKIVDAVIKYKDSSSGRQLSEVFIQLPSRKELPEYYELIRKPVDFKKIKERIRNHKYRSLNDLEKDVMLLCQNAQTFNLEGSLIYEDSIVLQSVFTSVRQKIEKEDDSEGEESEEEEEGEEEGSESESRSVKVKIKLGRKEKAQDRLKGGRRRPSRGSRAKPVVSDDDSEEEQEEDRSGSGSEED
- assay-remarks: ATPase catalytic activity of BRG-1, ADP-Glo in vitro biochemical assay
- cond: ATPase catalytic activity, 30 nM BRG-1, 400 μM ATP, read-out: BRG1 IP50 (μM)*
Consider the following molecules and their measured IC50 readings.

Before answering, review these 2 worked examples.
C[C@@H]1CN(c2cccc(-c3csc(NC(=O)CNC(=O)c4ccn(S(C)(=O)=O)c4)n3)c2)CCO1 [Compound 88] :: < 0.01 µM
Cc1cc(-c2cccc(-c3csc(NC(=O)CNC(=O)c4ccn(S(C)(=O)=O)c4)n3)c2)cc(C)n1 [Compound 81] :: < 0.01 µM

Specify reported IC50 for the molecule shown: C[C@@H]1CCCN(c2cccc(-c3csc(NC(=O)CNC(=O)c4ccn(S(C)(=O)=O)c4)n3)n2)C1 [Compound 336]
> 0.01 µM

Quickly give me recorded IC50 for CS(=O)(=O)n1ccc(C(=O)NCC(=O)Nc2nc(-c3cccc(N4CCCC5(COC5)C4)c3)cs2)c1 [Compound 204]
> 0.01 µM

Identify IC50 associated with the molecule CC1(n2ccc(C(=O)NCC(=O)Nc3nc(-c4ccnc(N5CCC(O)CC5)n4)cs3)c2)COC1 [Compound 321]
> 0.1 µM

Give the reported value of IC50 for this record: COC[C@H](NC(=O)c1ccn(C(C)(C)C)c1)C(=O)Nc1nc(-c2cccc(-c3ccn(C)n3)c2)cs1 [Compound 62]
> 0.01 µM

Answer with the recorded IC50 of CN(C)S(=O)(=O)n1ccc(C(=O)NCC(=O)Nc2nc(-c3cccc(-c4ccncc4)c3)cs2)c1 [Compound 47] only.
> 0.01 µM

###

- system-under-test: BRM (Homo sapiens, UniProt P51531)
- Construct: made in house; host or cells: High Five insect cells
- Sequence (P51531 whole entry): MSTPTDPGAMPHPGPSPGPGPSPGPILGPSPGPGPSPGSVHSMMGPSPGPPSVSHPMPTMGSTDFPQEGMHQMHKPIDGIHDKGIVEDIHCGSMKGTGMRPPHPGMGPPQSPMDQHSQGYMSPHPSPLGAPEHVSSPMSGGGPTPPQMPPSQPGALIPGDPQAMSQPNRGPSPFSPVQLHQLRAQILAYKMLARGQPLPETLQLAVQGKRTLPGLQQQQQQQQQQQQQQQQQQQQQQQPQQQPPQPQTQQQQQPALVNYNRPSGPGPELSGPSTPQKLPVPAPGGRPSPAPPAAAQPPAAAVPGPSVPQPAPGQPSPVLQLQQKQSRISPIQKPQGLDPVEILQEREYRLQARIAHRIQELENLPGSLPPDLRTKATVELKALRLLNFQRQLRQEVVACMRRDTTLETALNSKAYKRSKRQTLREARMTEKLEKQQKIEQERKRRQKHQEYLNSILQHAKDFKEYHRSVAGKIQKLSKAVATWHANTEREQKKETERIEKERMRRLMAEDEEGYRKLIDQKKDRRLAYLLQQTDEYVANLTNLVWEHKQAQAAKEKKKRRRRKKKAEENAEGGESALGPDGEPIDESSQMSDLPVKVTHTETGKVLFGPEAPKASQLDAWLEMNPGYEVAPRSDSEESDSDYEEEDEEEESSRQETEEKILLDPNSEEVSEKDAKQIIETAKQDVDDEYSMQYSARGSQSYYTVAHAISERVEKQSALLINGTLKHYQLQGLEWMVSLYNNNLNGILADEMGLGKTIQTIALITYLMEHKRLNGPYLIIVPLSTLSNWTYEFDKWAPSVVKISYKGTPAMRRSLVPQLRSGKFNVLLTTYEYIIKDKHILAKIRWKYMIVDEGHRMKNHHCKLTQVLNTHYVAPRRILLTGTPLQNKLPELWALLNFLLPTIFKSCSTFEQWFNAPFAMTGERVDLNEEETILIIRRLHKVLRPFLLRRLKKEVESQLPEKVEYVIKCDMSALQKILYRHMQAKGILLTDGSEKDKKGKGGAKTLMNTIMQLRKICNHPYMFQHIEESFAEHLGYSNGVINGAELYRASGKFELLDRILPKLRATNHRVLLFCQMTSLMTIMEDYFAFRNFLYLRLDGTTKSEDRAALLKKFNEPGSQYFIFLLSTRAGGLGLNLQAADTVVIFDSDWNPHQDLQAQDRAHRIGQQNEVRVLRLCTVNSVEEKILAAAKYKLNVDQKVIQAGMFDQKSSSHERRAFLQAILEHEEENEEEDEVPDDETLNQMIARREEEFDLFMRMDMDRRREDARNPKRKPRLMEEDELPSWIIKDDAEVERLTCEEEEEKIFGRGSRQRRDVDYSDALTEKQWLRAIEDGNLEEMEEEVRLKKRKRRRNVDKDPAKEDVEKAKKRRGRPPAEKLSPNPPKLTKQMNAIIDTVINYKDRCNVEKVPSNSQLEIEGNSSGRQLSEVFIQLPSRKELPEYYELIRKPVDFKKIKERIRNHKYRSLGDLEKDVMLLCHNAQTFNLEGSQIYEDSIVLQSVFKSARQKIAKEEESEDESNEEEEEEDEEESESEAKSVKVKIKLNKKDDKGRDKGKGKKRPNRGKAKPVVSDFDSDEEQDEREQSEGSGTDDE
- assay-remarks: ATPase catalytic activity of BRM, ADP-Glo in vitro biochemical assay
- cond: ATPase catalytic activity, 30 nM BRM, 400 μM ATP, read-out: BRM IP50
pIC50: −log10 of the molar value.
endpoint: pIC50

Example molecules with recorded pIC50:
CS(=O)(=O)n1ccc(C(=O)NCC(=O)Nc2nc(-c3cccc(C4CC(F)(F)C4)c3)cs2)c1 :: < 8.00
COC[C@H](NC(=O)c1ccn(S(C)(=O)=O)c1)C(=O)Nc1nc(-c2cccc(N3CCC(C(F)F)CC3)c2)cs1 :: < 8.00
COC[C@H](NC(=O)c1ccn(C2(C#N)CC2)c1)C(=O)Nc1nc(-c2cccc(-c3ccn(C)n3)c2)cs1 :: < 8.00
COC[C@H](NC(=O)c1ccn(C(C)(C)C)c1)C(=O)Nc1nc(-c2ccc3ccn(C(F)F)c(=O)c3c2)cs1 :: < 8.00
COC[C@H](NC(=O)c1ccn(S(C)(=O)=O)c1)C(=O)Nc1nc(-c2cccc(N3CC[C@H](C(F)F)C3)n2)cs1 :: < 8.00
CC(C)(C)n1ccc(C(=O)NCC(=O)Nc2nc(-c3cccc(N4CCCC(n5cncn5)C4)n3)cs2)c1 (stereo not shown) :: < 8.00

For the molecule C[C@@H]1CN(c2cncc(-c3csc(NC(=O)CNC(=O)c4ccn(C(C)(C)C)c4)n3)n2)C[C@H](C)O1 , give its reported pIC50.
< 8.00

###

Below: a set of entries, each annotated with reported pIC50.
- system-under-test: BRM (Homo sapiens, UniProt P51531)
- Construct: made in house; host or cells: High Five insect cells
- assay-remarks: ATPase catalytic activity of BRM, ADP-Glo in vitro biochemical assay
- cond: ATPase catalytic activity, 30 nM BRM, 400 μM ATP, read-out: BRM IP50
pIC50: −log10 of the molar value.

CS(=O)(=O)n1ccc(C(=O)NCC(=O)Nc2nc(-c3cc(F)cc(C#N)c3)cs2)c1 :: < 8.00
N#CC1(n2ccc(C(=O)NCC(=O)Nc3nc(-c4cccc(OC(F)(F)F)n4)cs3)c2)CC1 :: < 7.00
CC(C)(C)n1ccc(C(=O)NCC(=O)Nc2nc(-c3cccc(N4CC[C@@H](N5CCOCC5)[C@@H](F)C4)n3)cs2)c1 :: < 7.00
CC(C)(C#N)n1ccc(C(=O)NCC(=O)Nc2nc(-c3cc(F)c4c(c3)OCC4)cs2)c1 :: > 8.00

Query pIC50 for CC(C)(C)n1ccc(C(=O)NCC(=O)Nc2nc(-c3cccc(N4CCC(OC(F)F)C4)n3)cs2)c1 (stereo not shown)
< 8.00

Look up pIC50 of CN1CCc2c(F)cc(-c3csc(NC(=O)CNC(=O)c4ccn(S(C)(=O)=O)c4)n3)cc21 and report it.
> 8.00

Determine from records and report pIC50 for CS(=O)(=O)n1ccc(C(=O)NCC(=O)Nc2nc(-c3cccc(N4CC[C@H](C(F)F)C4)c3)cs2)c1
> 8.00

###

- system-under-test: BRM (Homo sapiens, UniProt P51531)
- Construct: made in house; host or cells: High Five insect cells
- assay-remarks: ATPase catalytic activity of BRM, ADP-Glo in vitro biochemical assay
- cond: ATPase catalytic activity, 30 nM BRM, 400 μM ATP, read-out: BRM IP50 (μM)*
endpoint: IC50

Answered examples (4):
CS(=O)(=O)n1ccc(C(=O)NCC(=O)Nc2nc(-c3cccc(N4CC[C@H](O)[C@@H](F)C4)c3)cs2)c1 :: < 0.01 µM
C[C@@H]1CN(c2cccc(-c3csc(NC(=O)CNC(=O)c4ccn(C(C)(C)C#N)c4)n3)n2)C[C@H](C)O1 :: < 0.01 µM
Cc1cc(-c2cccc(-c3csc(NC(=O)CNC(=O)c4ccn(S(C)(=O)=O)c4)n3)c2)ccn1 :: < 0.01 µM
CS(=O)(=O)n1ccc(C(=O)NCC(=O)Nc2nc(-c3cccc(OC4CCCOC4)c3)cs2)c1 (stereo not shown) :: > 0.01 µM

Supply IC50 value. Item: CS(=O)(=O)n1ccc(C(=O)NCC(=O)Nc2nc(-c3cccc(OC4CCC4)c3)cs2)c1
> 0.01 µM

Complete the entry with IC50 for C[C@H]1CN(c2cccc(-c3csc(NC(=O)CNC(=O)c4ccn(S(C)(=O)=O)c4)n3)c2)CC[C@H]1O
> 0.01 µM

Provide measured IC50 value, entry: C[C@H](NC(=O)c1ccn(S(C)(=O)=O)c1)C(=O)Nc1nc(-c2cccc(-c3ccncc3)c2)cs1
< 0.01 µM

###

- system-under-test: BRG-1 (Homo sapiens)
- Construct: made in house; host or cells: High Five insect cells
- assay-remarks: ATPase catalytic activity of BRG-1, ADP-Glo in vitro biochemical assay
- cond: ATPase catalytic activity, 30 nM BRG-1, 400 μM ATP, read-out: BRG1 IP50 (μM)*
endpoint: IC50

// known answers, use as guide
CN(C)CC[C@@H](NC(=O)c1ccn(S(C)(=O)=O)c1)C(=O)Nc1nc(-c2cccc(-c3ccncc3)c2)cs1 :: > 0.1 µM
CS(=O)(=O)n1ccc(C(=O)NCC(=O)Nc2nc(-c3cccc(N4CC5CC4CO5)c3)cs2)c1 (stereo not drawn) :: > 0.1 µM
COC[C@H]1CCCN(c2cccc(-c3csc(NC(=O)CNC(=O)c4ccn(S(C)(=O)=O)c4)n3)c2)C1 :: > 0.01 µM
CS(=O)(=O)n1ccc(C(=O)NCC(=O)Nc2nc(-c3cccc(N4CCC(C#N)CC4)c3)cs2)c1 :: > 0.01 µM
CC(C)(C)n1ccc(C(=O)NCC(=O)Nc2nc(-c3cccc(N4CCC4)c3)cs2)c1 :: > 0.01 µM

Report IC50 for CS(=O)(=O)n1ccc(C(=O)NCC(=O)Nc2nc(-c3cccc(OCc4ccncc4)c3)cs2)c1
< 0.01 µM

Output measured IC50 for this item: CN1CCCCc2ccc(-c3csc(NC(=O)CNC(=O)c4ccn(S(C)(=O)=O)c4)n3)cc21
> 0.1 µM

###

- system-under-test: BRM (Homo sapiens, UniProt P51531)
- Construct: made in house; host or cells: High Five insect cells
- assay-remarks: ATPase catalytic activity of BRM, ADP-Glo in vitro biochemical assay
- cond: ATPase catalytic activity, 30 nM BRM, 400 μM ATP, read-out: BRM IP50 (μM)*
endpoint: IC50

Reference set (5 entries):
C[C@@H]1CN(c2cc(-c3csc(NC(=O)CNC(=O)c4ccn(C(C)(C)C)c4)n3)ccn2)C[C@H](C)O1 [Compound 299] :: < 0.01 µM
CN1CCCc2ccc(-c3csc(NC(=O)CNC(=O)c4ccn(C(C)(C)C)c4)n3)cc21 [Compound 305] :: > 0.01 µM
C[C@@H]1CN(c2cccc(-c3csc(NC(=O)CNC(=O)c4ccn(C5(C(F)(F)F)CC5)c4)n3)n2)C[C@H](C)O1 [Compound 332] :: > 0.01 µM
C[C@@H]1CN(c2nccc(-c3csc(NC(=O)CNC(=O)c4ccn(S(C)(=O)=O)c4)n3)n2)C[C@H](C)O1 [Compound 325] :: < 0.01 µM
CS(=O)(=O)n1ccc(C(=O)NCC(=O)Nc2nc(-c3cccc(N4CCC[C@@H](C#N)C4)c3)cs2)c1 [Compound 211] :: > 0.01 µM

Given CO[C@@H]1CCCN(c2cccc(-c3csc(NC(=O)CNC(=O)c4ccn(S(C)(=O)=O)c4)n3)c2)C1 [Compound 161] , respond with its IC50.
> 0.01 µM

Give the reported IC50 for this molecule. CS(=O)(=O)n1ccc(C(=O)NCC(=O)Nc2nc(-c3cccc(OC4CCOCC4)c3)cs2)c1 [Compound 279]
> 0.01 µM

// Input: CS(=O)(=O)n1ccc(C(=O)NCC(=O)Nc2nc(-c3ccn(-c4ccncc4)n3)cs2)c1 [Compound 113] . Output its IC50 only.
> 0.1 µM

Give recorded IC50. CN1CCc2ccc(-c3csc(NC(=O)CNC(=O)c4ccn(S(C)(=O)=O)c4)n3)cc21 [Compound 270]
> 0.01 µM
